Molecular target: High affinity choline transporter 1 (Homo sapiens)
Experiment: CHT inhibitors, confirmation, cell-based, membrane potential dye, duplicate (AID 493221)
Conditions: CHT-expressing cells, at 10 µM, LV-to-AA substituted CHT, HEK293 cells
The whole screen tested about 2,400 compounds, of which about 1,700 (71%) were called active.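 The calls were made as follows: active = choline transporter activity left, mean of duplicates at 10 µM, below buffer-only control mean minus 3 SD; inactive = the rest.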 So high a share suggests a set chosen from earlier hits. Only a sample is shown.
The reply should be one of these categories: yes = active, no = inactive

A selection of reference data follows.
[
  {
    "COMPOUND": "O=c1c2ccccc2nnn1CSc1nc2sc3c(c2c(=O)n1CC1CCCO1)CCC3 (stereo not drawn)",
    "STUDY_TARGET": "High affinity choline transporter 1 (Homo sapiens)",
    "GROUP": "yes"
  },
  {
    "COMPOUND": "CCc1nc(C)cn1S(=O)(=O)c1cc([N+](=O)[O-])ccc1Cl",
    "STUDY_TARGET": "High affinity choline transporter 1 (Homo sapiens)",
    "GROUP": "no"
  },
  {
    "COMPOUND": "CCn1c(SCCC(C)C)nnc1-c1c[nH]c2ccccc12",
    "STUDY_TARGET": "High affinity choline transporter 1 (Homo sapiens)",
    "GROUP": "yes"
  }
]

As a next step, examine the compound that follows.
Ask: Returns: the outcome recorded for COCCNc1nc(-n2nc(C)cc2C)nc2sc3c(c12)CCCC3 in this assay.
Reply: yes

###

Biological target: High affinity choline transporter 1 (Homo sapiens) (UniProt Q9GZV3)
Sequence (Q9GZV3 whole entry, looked up): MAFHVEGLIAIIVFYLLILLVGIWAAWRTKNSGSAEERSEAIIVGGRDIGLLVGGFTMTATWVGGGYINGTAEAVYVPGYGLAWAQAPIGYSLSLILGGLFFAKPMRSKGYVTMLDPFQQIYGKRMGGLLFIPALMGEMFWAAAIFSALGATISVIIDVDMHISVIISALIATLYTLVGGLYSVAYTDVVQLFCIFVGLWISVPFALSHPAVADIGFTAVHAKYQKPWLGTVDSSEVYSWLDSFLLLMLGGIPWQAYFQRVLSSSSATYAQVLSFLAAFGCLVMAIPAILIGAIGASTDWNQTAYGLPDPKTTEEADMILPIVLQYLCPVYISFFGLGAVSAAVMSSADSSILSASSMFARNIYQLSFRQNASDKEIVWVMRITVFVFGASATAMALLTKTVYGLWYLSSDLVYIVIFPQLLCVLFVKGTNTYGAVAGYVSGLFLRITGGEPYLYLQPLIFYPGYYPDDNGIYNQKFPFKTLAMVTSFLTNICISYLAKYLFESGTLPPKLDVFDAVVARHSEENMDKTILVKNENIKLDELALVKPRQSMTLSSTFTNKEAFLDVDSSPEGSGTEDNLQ
Assay: CHT inhibitors, confirmation, cell-based, membrane potential dye, duplicate (AID 493221)
Settings: CHT-expressing cells, at 10 µM, LV-to-AA substituted CHT, HEK293 cells
Among all 2,400 compounds or so, about 1,700 (71%) were called active.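 Rule for the calls: active = choline transporter activity left, mean of duplicates at 10 µM, below buffer-only control mean minus 3 SD; inactive = the rest.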 So high a share suggests a set chosen from earlier hits. Only a sample is shown.
Field 'call' accepts active, inactive

[
  {
    "COMPOUND": "CC(=O)OCCOCn1cnn2c(=O)c(Br)c(C)nc12",
    "GROUP": "active"
  }
]

Ask: How did this test come out for CCCn1c2ccccc2c2cnn(CC(=O)NCCCN3CCCCC3CC)c(=O)c21 (stereo unspecified) ?
Reply: active

Ask: Also check CC(NC(=O)c1ccc(N2CCNCC2)c([N+](=O)[O-])c1)C12CC3CC(CC(C3)C1)C2 (stereo unspecified)
Reply: active

###

Target: High affinity choline transporter 1 (Homo sapiens)
Experiment: CHT inhibitors, confirmation, cell-based, membrane potential dye, duplicate (AID 493221)
Settings: CHT-expressing cells, at 10 µM, LV-to-AA substituted CHT, HEK293 cells
Hit rate of the full screen: of about 2,400 compounds, about 1,700 (71%) were called active.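 Rule for the calls: active = choline transporter activity left, mean of duplicates at 10 µM, below buffer-only control mean minus 3 SD; inactive = the rest.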 The set was probably picked from earlier hits. The list is a sample of the results.
Your reply should match one of these outcome classes. T (active), F (inactive)

Below, 6 molecules whose answers are already recorded.
[
  {
    "MOLECULE": "CC(C)(C)c1ccc(C(=O)CSc2ncn[nH]2)cc1",
    "STUDY_TARGET": "High affinity choline transporter 1 (Homo sapiens)",
    "GROUP": "T"
  },
  {
    "MOLECULE": "O=[N+]([O-])c1ccccc1Nc1ccc(O)cc1",
    "STUDY_TARGET": "High affinity choline transporter 1 (Homo sapiens)",
    "GROUP": "T"
  },
  {
    "MOLECULE": "CC(=O)c1ccc(Oc2cc(C)nc(-n3nc(C)cc3C)n2)cc1",
    "STUDY_TARGET": "High affinity choline transporter 1 (Homo sapiens)",
    "GROUP": "F"
  },
  {
    "MOLECULE": "COC(=O)C(C(=O)Nc1cccc(Cl)c1C)C1CCCC1 (stereo not given)",
    "STUDY_TARGET": "High affinity choline transporter 1 (Homo sapiens)",
    "GROUP": "F"
  },
  {
    "MOLECULE": "O=S(=O)(Nc1ccc(Cl)cn1)c1cnc(Cl)c(Br)c1",
    "STUDY_TARGET": "High affinity choline transporter 1 (Homo sapiens)",
    "GROUP": "F"
  },
  {
    "MOLECULE": "O=C1c2cccc3cccc(c23)C(=O)N1CCCCCc1n[nH]c(=S)o1",
    "STUDY_TARGET": "High affinity choline transporter 1 (Homo sapiens)",
    "GROUP": "F"
  }
]

Ask: Recorded call for O=C(/C=C/c1cn(-c2ccccc2)nc1-c1ccc2c(c1)OCCO2)NCCCN1CCOCC1 ?
Reply: T

Ask: Entry to check: Cc1ccc(S(=O)(=O)/N=C(/NC(=S)Nc2c(C)n(C)n(-c3ccccc3)c2=O)c2ccccc2)cc1
Reply: T

Ask: And the next one, Cc1cc(OC(C)C(=O)Nc2ccc(S(=O)(=O)Nc3onc(C)c3C)cc2)cc(C)c1Cl (stereo not given) ?
Reply: T

Ask: Can you check Cc1cccc(C)c1NC(=O)c1ccc(CN2CCc3ccccc3C2)cc1 next?
Reply: T

Ask: What do you have for CCc1ccc2c(c1)C1(NN=C(c3ccccc3)S1)C(=O)N2 (stereo not given) ?
Reply: T

###

Molecular target: High affinity choline transporter 1 (Homo sapiens) (UniProt Q9GZV3)
Test: CHT inhibitors, confirmation, cell-based, membrane potential dye, duplicate (AID 493221)
Settings: CHT-expressing cells, at 10 µM, LV-to-AA substituted CHT, HEK293 cells
Out of some 2,400 compounds screened, about 1,700 (71%) were called active.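 The calls were made as follows: active = choline transporter activity left, mean of duplicates at 10 µM, below buffer-only control mean minus 3 SD; inactive = the rest.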 So high a share suggests a set chosen from earlier hits. Only a sample is shown.
Result category, one only: true (1) (active), false (0) (inactive)

Here are 3 compounds together with their reported answers.
[
  {
    "COMPOUND": "CCCCn1c(SCC(=O)NCC2CCCO2)nc2ccc(N3CCOCC3)cc2c1=O (centres undefined)",
    "GROUP": "false (0)"
  },
  {
    "COMPOUND": "COc1ccc(Cn2c(=O)sc3ccccc32)cc1OC",
    "GROUP": "true (1)"
  },
  {
    "COMPOUND": "CCCCCn1c(=O)[nH]c2cc(C(=O)NCCCN3CCCCC3C)ccc2c1=O (centres undefined)",
    "GROUP": "true (1)"
  }
]

Now look at this entry.
Ask: How did this test come out for CN(C)c1ccc(Nc2c3c4c(cccc4n(C)c2=O)C(=O)c2ccccc2-3)cc1 ?
Reply: true (1)

###

Molecular target: High affinity choline transporter 1 (Homo sapiens)
Assay: CHT inhibitors, confirmation, cell-based, membrane potential dye, duplicate (AID 493221)
Conditions: CHT-expressing cells, at 10 µM, LV-to-AA substituted CHT, HEK293 cells
Screen size: about 2,400 compounds; about 1,700 (71%) were called active.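 Rule for the calls: active = choline transporter activity left, mean of duplicates at 10 µM, below buffer-only control mean minus 3 SD; inactive = the rest.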 The set was probably picked from earlier hits. The list is a sample of the results.
The reply should name one outcome from active, inactive

Examples with answers:
[
  {
    "MOLECULE": "O=C(Cn1nc(C(F)(F)F)c2c1CCC2)NCc1ccc(F)cc1",
    "STUDY_TARGET": "High affinity choline transporter 1 (Homo sapiens)",
    "GROUP": "active"
  },
  {
    "MOLECULE": "CC1CCCC(NC(=O)c2cccc(N3CCCC3=O)c2)C1C (stereo not drawn)",
    "STUDY_TARGET": "High affinity choline transporter 1 (Homo sapiens)",
    "GROUP": "active"
  },
  {
    "MOLECULE": "COc1cccc(-c2nn(-c3ccccc3)cc2/C=C(\\C#N)C(=O)NCCCn2ccnc2)c1",
    "STUDY_TARGET": "High affinity choline transporter 1 (Homo sapiens)",
    "GROUP": "active"
  },
  {
    "MOLECULE": "Cc1nn(CC(=O)NCC2CCCO2)c(=O)c2cc3ccccc3n12 (stereo not drawn)",
    "STUDY_TARGET": "High affinity choline transporter 1 (Homo sapiens)",
    "GROUP": "inactive"
  }
]

Ask: Test call, this molecule: CC(C(=O)NC1CCS(=O)(=O)C1)N1C(=O)/C(=C/c2ccc(Cl)cc2)SC1=S (stereo not drawn)
Reply: active

Ask: Please do the same for CC1CN(S(=O)(=O)c2ccc(C(=O)NN3CCN(C)CC3)cc2)CC(C)O1 (stereo not drawn) as well.
Reply: inactive

Ask: Also COc1ccc(C(CNC(=O)c2cccc(NS(=O)(=O)c3ccc(C)c(F)c3)c2)N2CCCC2)cc1 (stereo not drawn) ?
Reply: active

Ask: Quick one: C/C(=N\Nc1nc2ccccc2[nH]1)c1cccs1
Reply: active

Ask: Also, Nc1cc(N2CCCCCC2)c2nonc2c1[N+](=O)[O-] please.
Reply: active

Ask: Continue with Cc1cccnc1NC(=O)c1cccc(S(=O)(=O)N2CCN(c3ccc(F)cc3)CC2)c1
Reply: active

Ask: How about CC1CCN(CCCNC(=O)CN2C(=O)CSc3ccc(S(=O)(=O)N4CCCCC4)cc32)CC1 ?
Reply: active

Ask: Next molecule: Cc1ccc(C(=O)NC2CCCC(C)C2C)cc1S(=O)(=O)N1CCCCC1 (stereo not drawn)
Reply: active

Ask: Field entry: COc1ccc(S(=O)(=O)N2CCN(C(=O)NC3CCCCC3)CC2)cc1
Reply: inactive

Ask: And what about the molecule COc1ccc(/C=C2/SC(=O)N(CCCCCC(=O)Nc3ccccc3C(=O)O)C2=S)cc1 ?
Reply: active

Ask: Now consider CC(Oc1ccc2ccccc2c1)C(=O)NNC(=S)NC(=O)c1ccco1 (stereo not drawn) and answer again.
Reply: active

Ask: Now the molecule CC(=O)N1CCN(S(=O)(=O)c2cccc(C(=O)NC3CCC(C)CC3)c2)CC1 (stereo not drawn)
Reply: active

Ask: Entry Cc1ccccc1-n1nnc2c(=O)oc3ccccc3c21 please
Reply: inactive

Ask: Same question for CCOC(=O)C1(CCOC)CCN(Cc2ccc(C(=O)OC)cc2)CC1 please.
Reply: active
